Relative peak area Uncapped RNA values by entry
- measurement-target: T7 RNA polymerase (Escherichia phage T7, UniProt P00573)
- Construct: purchased Thermo Fisher Scientific
- Sequence (P00573 whole entry): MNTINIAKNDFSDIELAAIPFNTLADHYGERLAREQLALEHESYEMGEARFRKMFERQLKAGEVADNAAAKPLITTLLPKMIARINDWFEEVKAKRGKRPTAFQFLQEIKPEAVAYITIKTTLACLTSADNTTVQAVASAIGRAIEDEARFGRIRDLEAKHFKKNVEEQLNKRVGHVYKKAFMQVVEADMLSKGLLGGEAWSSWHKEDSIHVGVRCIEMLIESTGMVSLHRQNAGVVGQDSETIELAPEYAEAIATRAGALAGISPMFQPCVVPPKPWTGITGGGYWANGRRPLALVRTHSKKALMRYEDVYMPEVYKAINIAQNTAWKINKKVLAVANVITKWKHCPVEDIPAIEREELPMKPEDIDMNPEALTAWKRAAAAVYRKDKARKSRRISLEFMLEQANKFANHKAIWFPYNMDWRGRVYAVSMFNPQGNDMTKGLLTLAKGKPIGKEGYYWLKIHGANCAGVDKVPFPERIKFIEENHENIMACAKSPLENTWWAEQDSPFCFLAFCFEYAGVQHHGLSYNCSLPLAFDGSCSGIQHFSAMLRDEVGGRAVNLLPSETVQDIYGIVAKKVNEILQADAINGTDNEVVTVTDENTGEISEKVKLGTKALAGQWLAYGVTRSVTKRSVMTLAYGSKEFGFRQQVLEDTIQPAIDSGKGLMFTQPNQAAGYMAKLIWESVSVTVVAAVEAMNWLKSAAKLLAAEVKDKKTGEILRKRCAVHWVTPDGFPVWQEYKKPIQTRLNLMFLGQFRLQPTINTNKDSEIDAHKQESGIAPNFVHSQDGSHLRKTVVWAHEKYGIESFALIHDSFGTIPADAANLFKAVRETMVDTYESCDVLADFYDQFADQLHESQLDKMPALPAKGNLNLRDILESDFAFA
- Type: biochemical
- test-parameters: Table Ex-8; mRNA capped with 15.23 mM cap0 analog, N1-Methyl-pseudouridine; purified with Monarch RNA cleanup kit or Qiagen RNeasy mini kit
Write the answer as a number in %, unit excluded.

Worked cases, answers included:
>  <molecule>
C[n+]1cn(C[S+]([O-])CCCP(=O)(O)OP(=O)([O-])OP(=O)(O)OC[C@H]2O[C@@H](n3cnc4c(=O)[nH]c(N)nc43)[C@H](O)[C@@H]2O)c2nc(N)[nH]c(=O)c21 (stereo partly drawn) [Phosphonate Variant 2]

>  <Relative peak area Uncapped RNA (%)>
15.0

$$$$
>  <molecule>
C[n+]1cn(C2OC(COP(=O)(O)OP(=O)([O-])OP(=O)(O)OCC3OC(n4cnc5c(=O)[nH]c(N)nc54)C(O)C3O)C(O)C2O)c2nc(N)[nH]c(=O)c21 (stereo not drawn) [mCap, m7G(5′)ppp(5′)G, reference compound]

>  <Relative peak area Uncapped RNA (%)>
20.3

$$$$

What Relative peak area Uncapped RNA value was documented for this molecule, C[n+]1cn(CCSCP(=O)(O)OP(=O)([O-])OP(=O)(O)OC[C@H]2O[C@@H](n3cnc4c(=O)[nH]c(N)nc43)[C@H](O)[C@@H]2O)c2nc(N)[nH]c(=O)c21 [Phosphonate Variant 10] ?
8.7

====

- measurement-target: T7 RNA polymerase (Escherichia phage T7)
- Construct: purchased Thermo Fisher Scientific
- Assay type: biochemical
- test-parameters: Table Ex-8; mRNA capped with 15.23 mM cap0 analog, N1-Methyl-pseudouridine; purified with Monarch RNA cleanup kit or Qiagen RNeasy mini kit
observed-property: Relative peak area Unidentified peaks (%)
State just the number; it will be interpreted in %.

>  <compound>
C[n+]1cn(C2OC(COP(=O)(O)OP(=O)([O-])OP(=O)(O)OCC3OC(n4cnc5c(=O)[nH]c(N)nc54)C(O)C3O)C(O)C2O)c2nc(N)[nH]c(=O)c21 (stereo not drawn) [mCap, m7G(5′)ppp(5′)G, reference compound]

>  <Relative peak area Unidentified peaks / %>
4.2

$$$$

Record request: Relative peak area Unidentified peaks value, item C[n+]1cn(CCCOP(=O)(O)OP(=O)([O-])OP(=O)(O)OC[C@H]2O[C@@H](n3cnc4c(=O)[nH]c(N)nc43)[C@H](O)[C@@H]2O)c2nc(N)[nH]c(=O)c21
1.4

Please look up its Relative peak area Unidentified peaks: C[n+]1cn(CCCS(=O)(=O)CCP(=O)(O)OP(=O)([O-])OP(=O)(O)OC[C@H]2O[C@@H](n3cnc4c(=O)[nH]c(N)nc43)[C@H](O)[C@@H]2O)c2nc(N)[nH]c(=O)c21 [Phosphonate Variant 9]
6.5

====

- measurement-target: T7 RNA polymerase (Escherichia phage T7, UniProt P00573)
- Construct: purchased Thermo Fisher Scientific
- Type: biochemical
- test-parameters: Table Ex-8; mRNA capped with 15.23 mM cap0 analog, N1-Methyl-pseudouridine; purified with Monarch RNA cleanup kit or Qiagen RNeasy mini kit
// Relative peak area Capped RNA minus G lookup, one value per entry
Respond with the bare value in %.

>  <compound>
C[n+]1cn(CCS(=O)(=O)CP(=O)(O)OP(=O)([O-])OP(=O)(O)OC[C@H]2O[C@@H](n3cnc4c(=O)[nH]c(N)nc43)[C@H](O)[C@@H]2O)c2nc(N)[nH]c(=O)c21 [Phosphonate Variant 12]

>  <measurement-target>
T7 RNA polymerase (Escherichia phage T7, UniProt P00573)

>  <observed-property>
Relative peak area Capped RNA minus G

>  <readout-value>
8.6

$$$$
>  <compound>
C[n+]1cn(CCS(=O)(=O)CCP(=O)(O)OP(=O)([O-])OP(=O)(O)OC[C@H]2O[C@@H](n3cnc4c(=O)[nH]c(N)nc43)[C@H](O)[C@@H]2O)c2nc(N)[nH]c(=O)c21 [Phosphonate Variant 6]

>  <measurement-target>
T7 RNA polymerase (Escherichia phage T7, UniProt P00573)

>  <observed-property>
Relative peak area Capped RNA minus G

>  <readout-value>
4.2

$$$$
>  <compound>
C[n+]1cn(C[S+]([O-])CCCP(=O)(O)OP(=O)([O-])OP(=O)(O)OC[C@H]2O[C@@H](n3cnc4c(=O)[nH]c(N)nc43)[C@H](O)[C@@H]2O)c2nc(N)[nH]c(=O)c21 (stereo partly shown) [Phosphonate Variant 2]

>  <measurement-target>
T7 RNA polymerase (Escherichia phage T7, UniProt P00573)

>  <observed-property>
Relative peak area Capped RNA minus G

>  <readout-value>
6.3

$$$$

Field: next compound
// returns reported Relative peak area Capped RNA minus G for input C[n+]1cn(C2OC(COP(=O)(O)OP(=O)([O-])OP(=O)(O)OCC3OC(n4cnc5c(=O)[nH]c(N)nc54)C(O)C3O)C(O)C2O)c2nc(N)[nH]c(=O)c21 (stereo not shown) [mCap, m7G(5′)ppp(5′)G, reference compound]
12.2

====

# maps each entry to its Relative peak area Capped RNA minus G
- measurement-target: T7 RNA polymerase (Escherichia phage T7)
- Construct: purchased Thermo Fisher Scientific
- Type: biochemical
- test-parameters: Table Ex-8; mRNA capped with 15.23 mM cap0 analog, N1-Methyl-pseudouridine; purified with Monarch RNA cleanup kit or Qiagen RNeasy mini kit
Answer format: numeric, % implied, no suffix.

Look up Relative peak area Capped RNA minus G with T7 RNA polymerase (Escherichia phage T7) for this compound: C[n+]1cn(CCCOP(=O)(O)OP(=O)([O-])OP(=O)(O)OC[C@H]2O[C@@H](n3cnc4c(=O)[nH]c(N)nc43)[C@H](O)[C@@H]2O)c2nc(N)[nH]c(=O)c21
21.6

Find the measured Relative peak area Capped RNA minus G: item C[n+]1cn(CCSCP(=O)(O)OP(=O)([O-])OP(=O)(O)OC[C@H]2O[C@@H](n3cnc4c(=O)[nH]c(N)nc43)[C@H](O)[C@@H]2O)c2nc(N)[nH]c(=O)c21 [Phosphonate Variant 10] , target or system T7 RNA polymerase (Escherichia phage T7).
23.4

What Relative peak area Capped RNA minus G appears in the records for this compound with T7 RNA polymerase (Escherichia phage T7)? C[n+]1cn(CCCS(=O)(=O)CCP(=O)(O)OP(=O)([O-])OP(=O)(O)OC[C@H]2O[C@@H](n3cnc4c(=O)[nH]c(N)nc43)[C@H](O)[C@@H]2O)c2nc(N)[nH]c(=O)c21 [Phosphonate Variant 9]
4.4

GET /values?readout=Relative peak area Capped RNA minus G&system=T7 RNA polymerase (Escherichia phage T7)&item= C[n+]1cn(CC[S+]([O-])CCP(=O)(O)OP(=O)([O-])OP(=O)(O)OC[C@H]2O[C@@H](n3cnc4c(=O)[nH]c(N)nc43)[C@H](O)[C@@H]2O)c2nc(N)[nH]c(=O)c21 (stereo partly shown) [Phosphonate Variant 5]
4.3
